meta.source: patent US20220056104A1

Field: Rel EC50. Provide a value for each of the binders that follow.
- testedOn: T1, DcR3 (UniProt O95407 30-300, limits assumed)
- T1 construct: the construct is not described; also called decoy receptor DcR3; TNFRSF6B
- T1 sequence (looked up): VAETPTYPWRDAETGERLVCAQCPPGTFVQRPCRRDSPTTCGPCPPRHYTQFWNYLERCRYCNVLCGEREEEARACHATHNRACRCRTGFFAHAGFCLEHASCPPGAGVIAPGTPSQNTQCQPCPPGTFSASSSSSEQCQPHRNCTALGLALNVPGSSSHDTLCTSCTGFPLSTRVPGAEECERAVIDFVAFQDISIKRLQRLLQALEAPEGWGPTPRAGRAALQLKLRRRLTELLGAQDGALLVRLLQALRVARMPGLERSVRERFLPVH
- experiment: ELISA, DcR3

Below are worked cases with known answers.
TL1W138 (His-TEV-TL1A K240D) (ligand, also called TL1W138 (K240D)) HHHHHHENLYFQGLKGQEFAPSHQQVYAPLRADGDKPRAHLTVVRQTPTQHFKNQFPALHWEHELGLAFTKNRMNYTNKFLLIPESGDYFIYSQVTFRGMTSECSEIRQAGRPNKPDSITVVITKVTDSYPEPTQLLMGTKSVCEVGSNWFQPIYLGAMFSLQEGDKLMVNVSDISLVDYTDEDKTFFGAFLL ... 12.9 ratio (head: nM)
TL1W80 (His-TEV-TL1A K111A) (ligand, also called TL1W80 (K111A)) HHHHHHENLYFQGLKGQEFAPSHQQVYAPLRADGDKPRAHLTVVRQTPTQHFANQFPALHWEHELGLAFTKNRMNYTNKFLLIPESGDYFIYSQVTFRGMTSECSEIRQAGRPNKPDSITVVITKVTDSYPEPTQLLMGTKSVCEVGSNWFQPIYLGAMFSLQEGDKLMVNVSDISLVDYTKEDKTFFGAFLL ... 3.5 ratio (head: nM)

Note to self: Rel EC50 recorded for TL1W38 (His-TEV-TL1A L123K) (ligand, also called TL1W38 (L123K)) HHHHHHENLYFQGLKGQEFAPSHQQVYAPLRADGDKPRAHLTVVRQTPTQHFKNQFPALHWEHEKGLAFTKNRMNYTNKFLLIPESGDYFIYSQVTFRGMTSECSEIRQAGRPNKPDSITVVITKVTDSYPEPTQLLMGTKSVCEVGSNWFQPIYLGAMFSLQEGDKLMVNVSDISLVDYTKEDKTFFGAFLL was 5.4 ratio (head: nM)
